Target: spike protein of SARS-CoV-2 δ strain on pseudovirus (SARS-CoV-2 (δ strain))
Experiment: cell-based or functional assay
Assignment: determine reported IC50 of pseudovirus infection (luciferase) for the given binders.
Answer in ng/mL, number only, no unit symbol.

For the binder Ab803 (antibody, V domains shown) VH: EVQLVESGGGLVQPGRSLRVSCAASGFTFDDYAMHWVRQTPRKGLEWVAGISRNSAAIAYADSVKGRFTISRDNAKNSVFLQMNGLRADDTALYYCVKSPRYGWGSPDYSFDFWGRGTLVTVSS VL: DIQLTQSPSSLSASVGDRVTITCRASQNIGTYLNWYQQEPGKAPKLLIYAASSLQSGVPSRFSGSGSGTDFTLTISSLQPEDFATYCCQQSFTTPLTFGQGTKVEIK , give its measured IC50 of pseudovirus infection (luciferase) value.
63.9

Answer with the recorded IC50 of pseudovirus infection (luciferase) of Ab830 (antibody, V domains shown) VH: QVQLVQSGAEVKKPGSSVKVSCKTSGGTFTNYTISWVRQAPGQGLEWMGRIIPIFDIVNYAQKFQGRVTITADKSTSTTYMELSSLRSEDTAVYYCARDGVLYDTSGYLYDAFDIWGQGTMVTVSS VL: DIQMTQSPSSLSASVGDRVTITCRASQGINNYLAWFQQKPGKAPKSLIYAASSLQSGVPPKFSGSGSGTDFTLTISSLQPEDFATYYCLHYNSYPWTFGQGTKVEIK only.
55.4

Please give measured IC50 of pseudovirus infection (luciferase) of the following entry: Ab159 (antibody, V domains shown) VH: QVQLVESGGGLVKPGGSLRLSCAASGFTFNNAWMSWVRQAPGKGLEWVGRIKSKTDGGTTDYAAPVKGRFTFSRDDSKNTLYLQMSSLKTEDTALYYCTTADYDILTGTPASPYWGQGTLVTVSS VL: DIQMTQSPSSLSASVGDRVTITCRASQSITNYLNWYQQKPGKAPKFLIYAASSLQGGVPSRFRGSGSGTDFTLTISSLQPEDFATYYCQQTYSTLWTFGQGTKVEIK
130

Write down IC50 of pseudovirus infection (luciferase) measured for item Ab326 (antibody, V domains shown) VH: EVQLVESGGGVVQPGRSLRLSCAASGFTFSHYPMHWVRQAPGRGLEWVAVISYDGSNQHYVDSVKGRFTISRDNSKNTLYLQMNSLRAEDTAVYFCASLITMIRGVPDYWGQGTLVTVSS VL: DIQMTQSPSSLSASVGDRVTITCRASQSISNYLNWYQQKPGKAPNLLIFAASSLQSGVPSRFSGSGSGTEFTLTISSLQPEDFAAYYCLQTYSTPRTFGQGTRLEIK
18.4

Quote IC50 of pseudovirus infection (luciferase) reported for Ab816 (antibody, V domains shown) VH: QVQLVQSGAEVKKPGESLMISCKASGYNFRNYWIAWVRQMPGKGLEWMGIIHPGDSDIRYRPSLQGHVTISADKSITTAYLQWGSLKASDTAMYYCTRITTDADSSGLFHYWGQGTLVTVSS VL: EIVLTQSPSTLSASVGDRVTITCRASQNIYTWLAWYQRKPGKAPKVLIYKASSLESGVPSRFSGSGSGTEFTLTISSLQPDDFATYYCQQYKSAWSFGQGTKVEIK please.
23.9

Fill in IC50 of pseudovirus infection (luciferase) for record Ab496 (antibody, V domains shown) VH: EVQLVQSGPEVKKPGTSVKVSCKASGFIFTNSAVQWVRQARGQRLEWIGWIVVGSGNPNYAQKFQERVTITRDRSTSTAYMELSSLTSEDTAVYYCAAFPYYYDNSGSGPWGQGTLVTVSS VL: DIQLTQSPSSLSASVGDRVTITCQASQDIRNNLNWYQQIPGKAPKLLIYDASNLETGVPSRFSGSASGTDFTFTISSLQPEDVATYYCQQYANLPPFTFGPGTKVDIK
9.84

Identify measured IC50 of pseudovirus infection (luciferase) associated with Ab847 (antibody, V domains shown) VH: EVQLVQSGAEVKKPGASVKVSCKASGYTFTSYDIIWVRQATGQGLEWMGWMDPSRGTTGYAQTFQGRVTMTRDTSISTAYLELNSLTSEDTAVYYCVAHIVVLDRWFDPWGQGTLVTVSS VL: DIVMTQSPSSLSASVGDRVTITCQASQDIGNFLNWCQQKPGQAPKVLIYGASNLETGVPSRFSGSGSGTDFTFTISSLQPEDIATYYCQHYDNFPPRFTFGQGTKLDIK
42.2

Give reported IC50 of pseudovirus infection (luciferase) value for Ab765 (antibody, V domains shown) VH: QVQLVESGGGVVQPGRSLRLSCAASGFTFSDYAIHWVRQAPGRGLEPVALISYDGNNKYYADSVKGRFTISRDNSKNVLYLQMNSLRADDTAVYYCARDAEGGWVAALDYWGQGTLVTVSS VL: QSALTQPRSVSGSPGQSVTISCTGTSSDVGGYNYVSWYQHHPGKAPKVMIYEVSKRPSGVPDRFSGSKSGTTASLTISGLQAEDEADYYCCSYAGTYPYVFGTGTKVTVL
26.9

Give a short answer stating reported IC50 of pseudovirus infection (luciferase) for Ab864 (antibody, V domains shown) VH: EVQLVESGGGLVQPGRSLRLSCAASGFTFDDYAMHWVRQVPGKGLEWVSGISWNKGNIDYADSVKGRFTISRDNAKNSLYLQMNSLRPEDTGLYYCAKDCHYDSPGYFPNCLHSWGQGTLVTVSS VL: EIVMTQSPSSLSASVGDRVTITCRASQGINTYLAWYQQKPGKAPKLLIYTASTLQSGVPSRFSGSGSGTDFTLTISSLQPEDFATYYCQQVHSYPLTFGGGTKVEIK .
17.2

Recall and state the measured IC50 of pseudovirus infection (luciferase) for Ab709TK (antibody, V domains shown) VH: QVQLVESGGGVVQPGKSLRLSCAASGFTFSSYAMHWVRLAPGKGLEWVAVISPDGKNKYYVDSVKGRSTISRDNSKNTLYLLMNSLRAEDTAVYYCATTQSLWFGQFYYIYGMDVWGQGTTVTVSS VL: QSVLTQPHSVSESPGKTITISCTGSSGSIASNYVQWYQQRPGSAPTTVIYEDTERPSGVPDRFSGSIDSSSNSASLTISGLKTEDEADYYCQSYDSNNVVFGGGTKLTVL .
58.6

For Ab354 (antibody, V domains shown) VH: QVQLVQSGAEVKKPGASVTVSCKASGFLFTGYYMHWVRQAPGQGLEWMGWINPNSGASNYTRKFQGRVTMTRDTSISATYMKLSRLTSDDTAVYYCARDLAFSMVRGALDYWGQGTLVTVSS VL: QLVLTQPPSASGSPGQSVTISCTGTSSDVGGYNYVSWYQHHPGKAPKLMIYEVSKRPSGVPDRFSGSKSGNTASLTVSGLQAEDEADYYCNSYAGNNNWVFGTGTKVTVL , write its IC50 of pseudovirus infection (luciferase).
71.5
